Sequence of the target: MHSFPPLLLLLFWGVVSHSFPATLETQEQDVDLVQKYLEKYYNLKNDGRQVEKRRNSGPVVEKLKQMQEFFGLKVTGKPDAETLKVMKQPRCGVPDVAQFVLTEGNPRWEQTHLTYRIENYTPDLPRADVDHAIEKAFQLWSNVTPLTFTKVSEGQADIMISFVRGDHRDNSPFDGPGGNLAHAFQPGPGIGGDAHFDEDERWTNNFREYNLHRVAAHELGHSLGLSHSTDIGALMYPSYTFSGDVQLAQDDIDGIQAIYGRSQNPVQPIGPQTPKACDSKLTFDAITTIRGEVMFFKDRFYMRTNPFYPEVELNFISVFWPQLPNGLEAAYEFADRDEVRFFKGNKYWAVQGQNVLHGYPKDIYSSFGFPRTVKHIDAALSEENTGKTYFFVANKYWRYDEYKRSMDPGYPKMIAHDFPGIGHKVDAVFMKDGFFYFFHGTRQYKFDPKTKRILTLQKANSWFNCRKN
PARAMETER_MEASURED: pKi
In textbook form, pKi equals minus log to base ten of the concentration in mol/L.

Look at this compound and give its reported pKi. CCOC(=O)N1CCN(C(=O)CC[C@H](C(=O)NO)N(Cc2ccc3c(c2)OCO3)S(=O)(=O)c2c(C)cc(OC)c(C)c2C)CC1
4.49

# repeat for COc1ccc(S(=O)(=O)N(Cc2ccc3c(c2)OCO3)[C@H](CCC(=O)N2CCN(C(C)=O)CC2)C(=O)NO)cc1
6.92

Here is the next compound: CCOC(=O)N1CCN(C(=O)CC[C@H](C(=O)NO)N(Cc2ccc3c(c2)OCO3)S(=O)(=O)c2ccc(OC)cc2)CC1
7.05
